# System: NCI-H446
# assayRemarks: excess over highest single agent (ExcessHSA) synergy score, 6x6 matrix; higher = less synergy (more negative = stronger synergy)
# studyConditions: 72 h; CellTiter-Glo viability
The full ranking holds about 1,900 compounds; the median of “excess over highest single agent (ExcessHSA) synergy score, 6x6 matrix” is about -83, and the lowest 2% start at about -370. What follows is part of a selection rich in the lowest values, with near analogues and random picks from the rest.
Simple rule here: excess over highest single agent less than -300 is MET, otherwise NOT MET.

Completed entries (count: 4):
Nc1ccn([C@@H]2O[C@H](CO)[C@@H](O)C2(F)F)c(=O)n1 + Cc1sc2c(c1C)C(c1ccc(Cl)cc1)=N[C@@H](CC(=O)OC(C)(C)C)c1nnc(C)n1-2 :: MET
CCn1c(C(=O)N(C2CC2)C2CC2)cc2c3c(ncn3C)c(Nc3cc(C)n(C)n3)nc21 + Cc1sc2c(c1C)C(c1ccc(Cl)cc1)=N[C@@H](CC(=O)OC(C)(C)C)c1nnc(C)n1-2 :: NOT MET
Clc1ccc(-c2nc3sccn3c2C=NOCc2ccc(Cl)c(Cl)c2)cc1 + Cc1sc2c(c1C)C(c1ccc(Cl)cc1)=N[C@@H](CC(=O)OC(C)(C)C)c1nnc(C)n1-2 :: NOT MET
Nc1ccn([C@@H]2O[C@H](CO)[C@@H](O)[C@H]2O)c(=O)n1 + Cc1sc2c(c1C)C(c1ccc(Cl)cc1)=N[C@@H](CC(=O)OC(C)(C)C)c1nnc(C)n1-2 :: NOT MET

Now examine the next entry.
Is excess over highest single agent strictly under -300 for the entry CCS(=O)(=O)Nc1ccc2[nH]c(O)c(C(=Nc3ccc(CN4CCCCC4)cc3)c3ccccc3)c2c1 + Cc1sc2c(c1C)C(c1ccc(Cl)cc1)=N[C@@H](CC(=O)OC(C)(C)C)c1nnc(C)n1-2 ?
MET

* * *

# Test system: NCI-H446
# assayRemarks: excess over highest single agent (ExcessHSA) synergy score, 6x6 matrix; higher = less synergy (more negative = stronger synergy)
# studyConditions: 72 h; CellTiter-Glo viability
The full ranking holds about 1,900 compounds; the median of “excess over highest single agent (ExcessHSA) synergy score, 6x6 matrix” is about -83, and the lowest 2% start at about -370. The full list was thinned out, with the lowest values kept by preference.
Please map values of excess over highest single agent to classes as shown: one (below -200), two (-200 to below -40), three (-40 or more)

Known results for molecules:
CCN(CC)CCOc1ccc(Nc2ncc3cc(-c4c(Cl)cccc4Cl)c(=O)n(C)c3n2)cc1 + Cc1sc2c(c1C)C(c1ccc(Cl)cc1)=N[C@@H](CC(=O)OC(C)(C)C)c1nnc(C)n1-2 :: two
Cc1ccc2nc(NC(=O)CSc3nc4c(c(=O)n3-c3ccccc3)SCC4)sc2c1 + Cc1sc2c(c1C)C(c1ccc(Cl)cc1)=N[C@@H](CC(=O)OC(C)(C)C)c1nnc(C)n1-2 :: three
COc1ccc(Nc2cc(-c3cnc(N)nc3)nc(N3CCOCC3)n2)cn1 + Cc1sc2c(c1C)C(c1ccc(Cl)cc1)=N[C@@H](CC(=O)OC(C)(C)C)c1nnc(C)n1-2 :: three
COc1cccc2c1CCCC2CCCN1CCN(C2CCCCC2)CC1 (stereo not given) + Cc1sc2c(c1C)C(c1ccc(Cl)cc1)=N[C@@H](CC(=O)OC(C)(C)C)c1nnc(C)n1-2 :: two
O=C(O)c1ccc2cc(-c3ccc(O)c(C45CC6CC(CC(C6)C4)C5)c3)ccc2c1 + Cc1sc2c(c1C)C(c1ccc(Cl)cc1)=N[C@@H](CC(=O)OC(C)(C)C)c1nnc(C)n1-2 :: one

Lab note: sort Cn1cnc(-c2cc3nccc(Oc4ccc(NC(=S)NC(=O)Cc5ccccc5)cc4F)c3s2)c1 + Cc1sc2c(c1C)C(c1ccc(Cl)cc1)=N[C@@H](CC(=O)OC(C)(C)C)c1nnc(C)n1-2 into the matching excess over highest single agent band.
three

# bin lookup: classify C[C@H](Cc1ccc(O)c(O)c1)[C@@H](C)Cc1ccc(O)c(O)c1 + Cc1sc2c(c1C)C(c1ccc(Cl)cc1)=N[C@@H](CC(=O)OC(C)(C)C)c1nnc(C)n1-2 by its excess over highest single agent
one

# bin lookup: classify O=C(O)C(O)Cc1ccc(O)c(O)c1 (stereo not given) + Cc1sc2c(c1C)C(c1ccc(Cl)cc1)=N[C@@H](CC(=O)OC(C)(C)C)c1nnc(C)n1-2 by its excess over highest single agent
three

Category lookup for the molecule Nc1ccc(C(=O)c2cc3c(ccc4ccccc43)[nH]2)cc1 + Cc1sc2c(c1C)C(c1ccc(Cl)cc1)=N[C@@H](CC(=O)OC(C)(C)C)c1nnc(C)n1-2
one
